Assay Remarks: chemical genetic growth profiling, strain panel (AID 1159580);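 further: tested at 20 µM; growth read once vehicle control cultures reached saturation at 30 °C; 1 = growth at the plate median or of vehicle wells; lower values mean less growth of the strain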
Cond: S. cerevisiae deletion strains, growth OD, locus YLR371W, strain rom2, stronger effect = lower value
About 2,000 (36%) of roughly 5,500 compounds were called active. Another 18% or so got no clear call; they are omitted. The list shows a part of the results.
Experimental Readout: normalized growth
Response field accepts a number only; no unit should be typed.

Recorded normalized growth, per entry:
>>> print(df.to_string())
                                   compound  recorded_result
0                  O=C(O)c1ccccc1OP(=O)(O)O            0.987
1  OCCN(CCO)c1nc(N2CCCCC2)c2nc(N(CCO)CCO)nc(N3CCCCC3)c2n1            0.996
2  COc1ccc(-c2coc3c(OC)c(OC)cc(O)c3c2=O)cc1            0.945
3      COc1ccc(-c2coc3c(O)c(OC)ccc3c2=O)cc1            0.922
4             CCc1nc(N)nc(N)c1-c1ccc(Cl)cc1             1.01
5  CC(=O)[C@H]1CCC2C3C[C@H](C)C4=CC(=O)CC[C@]4(C)C3[C@@H](O)C[C@@]21C (some centres not stated)            0.978

Item COC1C(O)C(O)C(O)[C@@H](O)C1O (some centres not stated) : provide normalized growth
1.02

Item CCN(CC)C(=S)SSC(=S)N(CC)CC : provide normalized growth
0.0655

Item COc1cc2c(cc1OC)C(=O)C(CC1CCN(Cc3ccccc3)CC1)C2 (configuration not stated) : provide normalized growth
0.986

Item COc1c2c(c(CC=C(C)C)c3oc(=O)c(-c4ccc(O)cc4)c(O)c13)OC(C)(C)C=C2 : provide normalized growth
0.519

Item CCCCCC(=O)O[C@]1(C(C)=O)CCC2C3CCC4=CC(=O)CC[C@]4(C)C3CC[C@@]21C (some centres not stated) : provide normalized growth
1.01

Item N=c1nc(N2CCCCC2)cc(N)n1O : provide normalized growth
0.95

* * *

Assay Remarks: chemical genetic growth profiling, strain panel (AID 1159580);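 further: tested at 20 µM; growth read once vehicle control cultures reached saturation at 30 °C; 1 = growth at the plate median or of vehicle wells; lower values mean less growth of the strain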
Cond: S. cerevisiae deletion strains, growth OD, locus YBR171W, strain sec66, stronger effect = lower value
In all, about 5,500 compounds went through this assay and about 2,000 (36%) were called active. About 18% were inconclusive and are not listed. Some of the results follow.
Items are presented alongside their recorded normalized growth.
Response field accepts a number only; no unit should be typed.

Recorded normalized growth, per entry:
                                   compound  recorded_result
0  COc1ccc(C[C@H]2NC[C@H](O)[C@H]2OC(C)=O)cc1                1
1                          O=C(Cc1ccccc1)NO             0.96
2  OCC(O)Cc1ccc2c(c1)OCO2 (configuration not stated)             1.01

Item CN=C(NC#N)NCCSCc1nc(N=C(N)N)cs1 : provide normalized growth
0.975

Item Cc1c(N(C)C)c(=O)n(-c2ccccc2)n1C : provide normalized growth
0.987

Item CC(=O)O[C@]1(C(C)=O)CCC2C3C[C@H](C)C4=CC(=O)CC[C@]4(C)C3CC[C@@]21C (some centres not stated) : provide normalized growth
0.95

Item CN1C2CC3C[C@H]1C(O3)C2O (some centres not stated) : provide normalized growth
1.03
